Data origin, for the record: paper PMC6880826

# assay method text: Mouse pharmacokinetics, plasma and brain, oral dose
# Type: in vivo, CD1 mouse
# settings: CD1, po, plasma, p.o. 10 mg/kg
readout kind: Tmax (h)

compound string: O=C(O)CSc1ncnc2c(C3CC3)c(Cl)sc12
experimental result: 2

====

Each entry below lists one item and its recorded efflux ratio value.
# Tested on: P-gp (MDR1)
# assay method text: MDCK-MDR1 monolayer permeability / P-gp efflux
# Type: in vitro ADME
# settings: dog, MDCK-MDR1; csv file; read-out: MDCK-mdr1 ER

molecule: O=C(CSc1ncnc2c(C3CC3)c(Cl)sc12)N1CCn2cncc2C1 [Compound 17n]
efflux ratio: 3.4
--
molecule: O=C(CSc1ncnc2c(C3CC3)c(Cl)sc12)N1CCn2nncc2C1 [Compound 17r]
efflux ratio: 1.1
--
molecule: O=C(CSc1ncnc2c(C3CC3)c(Cl)sc12)N1CCn2ccnc2C1 [Compound 17m]
efflux ratio: 1.2
--
molecule: CN1CN(C(=O)CSc2ncnc3c(C4CC4)c(Cl)sc23)CC1=O [Compound 17h]
efflux ratio: 2.2
--
molecule: O=C(CSc1ncnc2c(C3CC3)c(Cl)sc12)N1CCn2c(nnc2C(F)(F)F)C1 [Compound 17q]
efflux ratio: 2.8

====

# target entity: Notum(81-451 Cys330Ser) (Homo sapiens, UniProt Q6P988, C330S)
# Sequence (Q6P988 81-451 C330S): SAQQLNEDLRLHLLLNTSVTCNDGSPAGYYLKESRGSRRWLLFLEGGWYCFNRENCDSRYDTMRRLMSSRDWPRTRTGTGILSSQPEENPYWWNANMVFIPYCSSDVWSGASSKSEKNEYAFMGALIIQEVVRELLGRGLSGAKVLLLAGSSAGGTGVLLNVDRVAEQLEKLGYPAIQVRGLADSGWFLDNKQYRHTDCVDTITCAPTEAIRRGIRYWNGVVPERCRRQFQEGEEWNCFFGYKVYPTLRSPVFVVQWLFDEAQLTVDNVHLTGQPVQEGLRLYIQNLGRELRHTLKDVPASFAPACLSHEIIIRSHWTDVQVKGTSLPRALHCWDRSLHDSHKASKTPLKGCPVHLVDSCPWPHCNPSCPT
# assay method text: Notum OPTS fluorescence inhibition assay
Each entry below lists one item and its recorded IC50 value.
readout kind: IC50 (nM)

compound: O=C1CN(C(=O)CSc2ncnc3c(C4CC4)c(Cl)sc23)CCCN1 [Compound 17j]
measurement unit: nM
experimental result: 36
--
compound: O=C(CSc1ncnc2c(C3CC3)c(Cl)sc12)N1CCn2ccnc2C1 [Compound 17m]
measurement unit: nM
experimental result: 2.7
--
compound: O=C(CSc1ncnc2c(C3CC3)c(Cl)sc12)N1CC2COCC2C1 (stereo not drawn) [Compound 17e]
measurement unit: nM
experimental result: 10
